Recorded values, source PubChem BioAssay (NCATS).

Tested on: Hek293T
assayMethodText: Primary qHTS to identify gynecologic anti-cancer compounds using libraries of approved drugs and bioactive compounds (AID 1345084); also: nearly all actives have a fitted effect of over 55% in size
settings: Gynecologic cancer cell panel viability, ATPlite luminescence, 48 h, control line for the selectivity index; series mostly up to 57.5 µM
Results filed as inconclusive are left out. Active and inactive are the calls of the source. Calls follow the shape of the dose curve; as a rule, active = well fitted cell-killing curve with a large enough effect; inconclusive = small, poorly fitted or top-dose-only effect, or effect the other way; inactive = flat fitted curve, though single readings scatter.
Your reply should match one of these outcome classes. active, inactive

input: Status in this test for CC(/C=C/C1=CC2=CC(=O)C(C)(O)C(O)C2=CO1)=C\C(C)CCO (centres undefined) ?
output: inactive

input: Try the compound `CC1=CC(=O)[C@]2(O[C@@H]3O[C@@H](C)[C@H](O)[C@@H](O)[C@H]3OC(=O)/C=C/c3ccccc3)C=CO[C@@H](O[C@@H]3O[C@H](CO)[C@@H](O)[C@H](O)[C@H]3O)[C@H]12`
output: inactive

input: Try the compound COc1cccc2cc3c(c(O[C@@H]4O[C@H](CO[C@@H]5O[C@H](CO)[C@@H](O)[C@H](O)[C@H]5O)[C@@H](O)[C@H](O)[C@H]4O)c12)C(C)OC3=O (some centres undefined)
output: inactive

input: Try the compound `C=CC(C)(C)c1[nH]c2ccccc2c1C[C@@H]1NC(=O)[C@H](Cc2c[nH]c3ccccc23)NC1=O`
output: inactive

input: Try the compound `COc1ccc(-c2c(-c3cc(C(=O)O)ccn3)ncn2C)cc1`
output: inactive

input: Try the compound `OC[C@H]1O[C@@H](OC[C@H]2O[C@@H](OC/C=C/c3ccccc3)[C@H](O)[C@@H](O)[C@@H]2O)[C@@H](O)[C@@H]1O`
output: inactive

input: Try the compound `C/C1=C\CC[C@]2(C)O[C@@H]2[C@H](O)[C@H](C(C)C)[C@H](OC(=O)/C=C/c2ccccc2)C1`
output: inactive

input: Try the compound CC(C)CCC(=O)CC1c2ccccc2C(=O)N1c1ccc2ccc(Cl)nc2n1 (centres undefined)
output: inactive

input: Try the compound `Cc1cccc(S(=O)(=O)N2CCC[C@@H]2CCN2CCC(C)CC2)c1`
output: inactive

input: Try the compound `CC(C)c1cc2c(c(O)c1O)[C@@]13CCCC(C)(C)[C@@H]1[C@H](OC3=O)C2=O`
output: inactive

input: Try the compound `Cc1ccccc1CN1C2=NCCN2C(=O)C2=C1CCN(Cc1ccccc1)C2`
output: inactive

input: Try the compound C=CC(C)(CC/C=C(\C)C(=O)OC)OC1OC(COC(=O)CC(C)(O)CC(=O)O)C(OC2OC(CO)C(O)C(O)C2O)C(O)C1O (centres undefined)
output: inactive

input: Try the compound COc1ccc(C(O)C(C)OC2OC(CO)C(O)C(O)C2O)cc1 (centres undefined)
output: inactive

input: Try the compound `Cc1cc(=O)oc2c(C=O)c(O)ccc12`
output: inactive

input: Try the compound `CCCC(=O)NCCc1csc(-c2ccc(Cl)cc2)n1`
output: inactive

input: Try the compound `Nc1ncnc2c([C@@H]3N[C@H](CO)[C@@H](O)[C@H]3O)c[nH]c12`
output: inactive

input: Try the compound `CC(C)(C)C(=O)CN1C(=O)[C@H](NC(=O)Nc2cccc(C(=O)O)c2)CN(C2CCCCC2)c2ccccc21`
output: inactive

input: Try the compound CC1=CC2/C=C(\C)CC[C@@H](O)[C@@H](O)[C@@H]3O[C@@H]3C(=O)[C@]23C(=O)N[C@@H](CC(C)C)[C@@H]3[C@@H]1C (some centres undefined)
output: inactive

input: Try the compound `NCc1c[nH]c(=S)n1[C@@H]1CCc2c(F)cc(F)cc2C1`
output: inactive

input: Try the compound `CC(C)(C#N)c1ccc(N2C(=O)OCc3cnc4ccc(-c5cnc6ccccc6c5)cc4c32)cc1`
output: active

input: Try the compound Cc1cc2c(c(=O)[nH]1)OC(C(O)CC(C)C)O2 (centres undefined)
output: inactive

input: Try the compound COc1cc(C)c(C(=O)Oc2cc(C)c(C(=O)Oc3cc(C)c(C(=O)NC(C)C(=O)O)c(O)c3)c(O[C@@H]3O[C@H](CO)[C@@H](O)[C@H](O)[C@H]3OC(C)=O)c2)c(OC)c1 (some centres undefined)
output: inactive

input: Try the compound CCC(O)(C(=O)OCc1ccccc1NC(=O)CCC(=O)O)C(C)O (centres undefined)
output: inactive

input: Try the compound `C=C[C@@](C)(O)CC/C=C(\C)C(=O)O[C@@H]1[C@@H]2O[C@]2(C)[C@H]2[C@H](O[C@@H]3O[C@H](CO)[C@@H](O)[C@H](O)[C@H]3O)OC=C[C@@]12O`
output: inactive

input: Try the compound `CCc1cc(CN2CC(C(=O)O)C2)sc1-c1noc(-c2ccc(Oc3ccccc3)cc2)n1`
output: inactive

input: Try the compound `O=C(Nc1ccn[nH]1)c1c(F)cccc1F`
output: inactive

input: Try the compound C=C(CCC1=C(C)[C@H]2[C@H](CC3[C@@H]4CC=C5C[C@@H](O)C[C@@H](O)[C@]5(C)C4[C@H](O)C[C@@]32C)O1)CO[C@@H]1O[C@H](CO)[C@@H](O)[C@H](O)[C@H]1O (some centres undefined)
output: active

input: Try the compound `Cc1cc(C)c2c(N)c(C(=O)NCc3ccc(Cl)cc3)sc2n1`
output: inactive

input: Try the compound `O=C1CC2(CCCC2)[C@H](O)C(=O)N1CCCCN1CCN(c2ncccn2)CC1`
output: inactive

input: Try the compound `CCn1c(=O)c(-c2ccn[nH]2)cc2c(C)nc(N)nc21`
output: active

input: Try the compound `C[C@@H]1O[C@@H](O[C@H]2[C@@H]3C=CO[C@@H](O[C@@H]4O[C@H](CO)[C@@H](O)[C@H](O)[C@H]4O)[C@@H]3[C@@]3(CO)O[C@@H]23)[C@H](OC(=O)/C=C/c2ccccc2)[C@H](O)[C@H]1O`
output: inactive

input: Try the compound `C=CC/C=C\C/C=C\CCCCCCCc1cccc(O)c1C(=O)O`
output: inactive

input: Try the compound CC(=O)CCC1=C(C)C(O[C@@H]2O[C@H](CO)[C@@H](O)[C@H](O)[C@H]2O)C(O)CC1(C)C (some centres undefined)
output: inactive

input: Try the compound NC1CCC(Nc2cc(-c3cccc(NCc4cccc(F)c4)n3)c(Cl)cn2)CC1 (centres undefined)
output: active

---

System: SKOV3
assayMethodText: Primary qHTS to identify gynecologic anti-cancer compounds using libraries of approved drugs and bioactive compounds (AID 1345084); also: nearly all actives have a fitted effect of over 55% in size
settings: Gynecologic cancer cell panel viability, ATPlite luminescence, 48 h; series mostly up to 57.5 µM
Records with an inconclusive call do not appear. Calls of active or inactive are those of the source. Calls come from the whole dose curve; as a rule, active = well fitted cell-killing curve with a large enough effect; inconclusive = small, poorly fitted or top-dose-only effect, or effect the other way; inactive = flat fitted curve, though single readings scatter.
Your reply should match one of these outcome classes. T for active, F for inactive

input: Status in this test for `CCOc1cc(N2CCC(O)CC2)ccc1Nc1ncc2c(n1)N(C1CCCC1)CCC(=O)N2C` ?
output: T

input: Try the molecule CCCCNc1ccc(-c2ccc(CN3CCOCC3)cn2)c(NC2CCC(O)CC2)c1 (stereo not given)
output: F

input: Try the molecule `OC[C@H]1O[C@@H](OC[C@H]2O[C@@H](OC/C=C/c3ccccc3)[C@H](O)[C@@H](O)[C@@H]2O)[C@@H](O)[C@@H]1O`
output: F

input: Try the molecule `Nc1ncnc2c1nc(N)n2[C@@H]1O[C@H](CO)[C@@H](O)[C@H]1O`
output: T

input: Try the molecule CC(O)/C=C/C1(O)C(C)C(O[C@@H]2O[C@H](CO)[C@@H](O)[C@H](O)[C@H]2O)C(O)CC1(C)C (stereo not given in full)
output: F

---

System: SKOV3
assayMethodText: Primary qHTS to identify gynecologic anti-cancer compounds using libraries of approved drugs and bioactive compounds (AID 1345084); also: nearly all actives have a fitted effect of over 55% in size
settings: Gynecologic cancer cell panel viability, ATPlite luminescence, 48 h; series mostly up to 57.5 µM
Inconclusive results are not listed. Active and inactive are the calls of the source. Calls follow the shape of the dose curve; as a rule, active = well fitted cell-killing curve with a large enough effect; inconclusive = small, poorly fitted or top-dose-only effect, or effect the other way; inactive = flat fitted curve, though single readings scatter.
Your reply should match one of these outcome classes. yes for active, no for inactive

input: Status in this test for CC1(c2nc3c(C(N)=O)cccc3[nH]2)CCCN1 (configuration not stated) ?
output: no

input: Try the compound `CNS(=O)(=O)c1ccccc1Nc1nc(Nc2ccc(N3CCN(C)CC3)cc2OC)ncc1Cl`
output: yes

input: Try the compound `O=C(O)CC(=O)OC[C@H]1O[C@@H](Oc2ccc3c(c2)OC[C@H]2c4cc5c(cc4O[C@@H]32)OCO5)[C@H](O)[C@@H](O)[C@@H]1O`
output: no

input: Try the compound C=C1C(=O)O[C@@H]2C[C@H](C)[C@@]3(O)C=C(C(C)=O)[C@]4(CC3C[C@H]12)C(=O)O[C@H]1C[C@@H](C)C(CCC(C)=O)=CC[C@H]14 (some centres not stated)
output: no

input: Try the compound `COc1ncc(Nc2ncc([C@H](C)N3CCN(S(C)(=O)=O)CC3)cc2-c2nc(C)nc(N)n2)cc1F`
output: yes

input: Try the compound `CC[C@H]1OC(=O)[C@](C)(F)C(=O)[C@H](C)[C@@H](O[C@@H]2O[C@H](C)C[C@H](N(C)C)[C@H]2O)[C@](C)(OC)C[C@@H](C)C(=O)[C@@H](C)[C@H]2N(CCCCn3cc(-c4cccc(N)c4)nn3)C(=O)O[C@]12C`
output: no

input: Try the compound CC1COC(Nc2ccc3ncnc(Nc4ccc(OCc5nccs5)c(Cl)c4)c3c2)=N1 (configuration not stated)
output: yes
